The reported measurements were obtained from patent US5665745A.

biological target: muscarinic receptors (M1 -site, pirenzepine sensitive site) (Rattus norvegicus, UniProt P08482); construct: from tissue; host or cells: cerebral cortex membranes of male Wistar rats; test: inhibition of ^3 HPRZ (pirenzepine, [N-methyl-^3 H]) binding to rat cerebral cortex membranes; parameters: species or system rat (male Wistar
Sequence (P08482 whole entry): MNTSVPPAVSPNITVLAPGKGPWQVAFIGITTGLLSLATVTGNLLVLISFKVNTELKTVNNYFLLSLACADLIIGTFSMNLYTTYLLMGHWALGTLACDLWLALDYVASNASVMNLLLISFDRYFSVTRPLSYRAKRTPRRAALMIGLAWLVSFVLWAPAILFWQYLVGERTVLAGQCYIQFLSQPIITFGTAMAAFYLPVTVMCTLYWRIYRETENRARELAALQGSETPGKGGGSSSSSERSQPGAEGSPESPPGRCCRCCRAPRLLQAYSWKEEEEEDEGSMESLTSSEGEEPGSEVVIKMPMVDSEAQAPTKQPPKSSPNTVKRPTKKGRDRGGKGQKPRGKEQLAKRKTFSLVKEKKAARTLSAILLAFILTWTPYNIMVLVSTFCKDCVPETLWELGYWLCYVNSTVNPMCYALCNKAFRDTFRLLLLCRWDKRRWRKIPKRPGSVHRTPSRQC
Consider the following partition of reported IC50 into named classes: Low = under 20 nM, Mid = from 20 nM up to 30 nM, High = 30 nM and over

Query string: For this compound, which bin applies? CCOc1nsnc1OC1CN2CCC1CC2 (racemic)
Result string: High

Query string: For this compound, which bin applies? CCCCOc1nsnc1O[C@H]1CN2CC[C@H]1C2 (relative stereo)
Result string: High

Query string: For this compound, which bin applies? CCCCCCOc1nsnc1OC1CN2CCC1CC2 (racemic)
Result string: Mid

Query string: For this compound, which bin applies? CSCCc1nsnc1OC1CN2CCC1CC2 (racemic)
Result string: High

Query string: For this compound, which bin applies? c1csc(CCCSc2nsnc2OC2CN3CCC2CC3)c1 (racemic)
Result string: Low

Query string: For this compound, which bin applies? CCCOc1nsnc1OC1CN2CCC1CC2 (racemic)
Result string: Mid

Query string: For this compound, which bin applies? CCCCSc1nsnc1OCC1CN2CCC1CC2 (racemic)
Result string: Low

Query string: For this compound, which bin applies? CCCCCOc1nsnc1OC1CN2CCC1CC2 (racemic)
Result string: Mid

Query string: For this compound, which bin applies? c1csc(Sc2nsnc2OC2CN3CCC2CC3)c1 (racemic)
Result string: Low

Query string: For this compound, which bin applies? N#Cc1ccc(CSc2nsnc2OC2CN3CCC2CC3)cc1 (racemic)
Result string: Low

Query string: For this compound, which bin applies? c1nsnc1OCCOc1nsnc1OC1CN2CCC1CC2 (racemic)
Result string: High

* * *

biological target: muscarinic receptors (M1 -site, pirenzepine sensitive site) (Rattus norvegicus); construct: from tissue; host or cells: cerebral cortex membranes of male Wistar rats; assay: inhibition of ^3 HPRZ (pirenzepine, [N-methyl-^3 H]) binding to rat cerebral cortex membranes; design: species or system rat (male Wistar
Consider the following partition of reported IC50 into named classes: interval 1 (below 7 nM), interval 2 (7 nM to below 40 nM), interval 3 (40 nM or more)

Query string: For this molecule, which bin applies? c1csc(-c2ccc(Sc3nsnc3OC3CN4CCC3CC4)s2)c1 (racemic) [Compound 57]
Result string: interval 2

Query string: For this molecule, which bin applies? c1cncc(CCCSc2nsnc2OC2CN3CCC2CC3)c1 (racemic) [Compound 155]
Result string: interval 2

Query string: For this molecule, which bin applies? FC(F)(F)CCCSc1nsnc1OC1CN2CCC1CC2 (racemic) [Compound 154]
Result string: interval 1

Query string: For this molecule, which bin applies? CCCCSc1nsnc1O[C@@H]1CN2CC[C@@H]1C2 (relative stereo) [Compound 131]
Result string: interval 3

Query string: For this molecule, which bin applies? FC(F)(F)C(F)(F)CSc1nsnc1OC1CN2CCC1CC2 (racemic) [Compound 20]
Result string: interval 1

Query string: For this molecule, which bin applies? C/C=C\COc1nsnc1OC1CN2CCC1CC2 (mixture of isomers) [Compound 110]
Result string: interval 3

Query string: For this molecule, which bin applies? CCCCOc1nsnc1OC1CN2CCC1CC2 (racemic) [Compound 8]
Result string: interval 2

Query string: For this molecule, which bin applies? Clc1nsnc1O[C@@H]1CN2CCC[C@@H]1C2 (relative stereo) [Compound 47]
Result string: interval 2

Query string: For this molecule, which bin applies? CC(C)CCCSc1nsnc1OC1CN2CCC1CC2 (racemic) [Compound 39]
Result string: interval 2

* * *

target: muscarinic acetylcholine receptors; assay: inhibition of specific binding of ^3 H-Oxotremorine-M (^3 H-Oxo); parameters: species or system rat (male Wistar; conditions: ^3 H-Oxotremorine 1.0 nM, rat cortex, 30 min. at 25° C.
ASSAY METRIC: IC50 (nM)
Report the value in nM with no unit label.

Query string: What is its IC50 for muscarinic acetylcholine receptors? Entry: FCCCOc1nsnc1OC1CN2CCC1CC2 (racemic)
Result string: 42

Query string: What is its IC50 for muscarinic acetylcholine receptors? Entry: c1ccc(OCCSc2nsnc2OC2CN3CCC2CC3)cc1 (racemic)
Result string: 7.1

Query string: What is its IC50 for muscarinic acetylcholine receptors? Entry: CCCCSc1nsnc1OC1CCCN(C)C1 (racemic)
Result string: 34

Query string: What is its IC50 for muscarinic acetylcholine receptors? Entry: Clc1nsnc1OC1CN2CCC1CC2 (racemic)
Result string: 73

Query string: What is its IC50 for muscarinic acetylcholine receptors? Entry: Cc1ncsc1CCOc1nsnc1O[C@@H]1CN2CCC[C@H]1C2 (relative stereo)
Result string: 19

Query string: What is its IC50 for muscarinic acetylcholine receptors? Entry: FC(F)(F)C(F)(F)COc1nsnc1OC1CN2CCC1CC2 (racemic)
Result string: 36

Query string: What is its IC50 for muscarinic acetylcholine receptors? Entry: `CCCCOc1nsnc1OC1CNC1`
Result string: 92

Query string: What is its IC50 for muscarinic acetylcholine receptors? Entry: c1ccc(CCCSc2nsnc2OC2CN3CCC2CC3)cc1 (racemic)
Result string: 1.8

* * *

target: muscarinic receptors (M1 -site, pirenzepine sensitive site) (Rattus norvegicus, UniProt P08482); construct: from tissue; host or cells: cerebral cortex membranes of male Wistar rats; assay: inhibition of ^3 HPRZ (pirenzepine, [N-methyl-^3 H]) binding to rat cerebral cortex membranes; set-up: species or system rat (male Wistar
Labelling field: enter TRUE if recorded IC50 is less than 30 nM. Enter FALSE if it equals or exceeds that cut-off.

Query string: Is it true that IC50 reported for CCCCCCSc1nsnc1OC1CN2CCC1CC2 (racemic) is less than 30 nM?
Result string: TRUE

Query string: Is it true that IC50 reported for FC(F)(F)c1ccc(CCCSc2nsnc2OC2CN3CCC2CC3)cc1 (racemic) is less than 30 nM?
Result string: FALSE

Query string: Is it true that IC50 reported for CCCCCSc1nsnc1OC1CN2CCC1CC2 (racemic) is less than 30 nM?
Result string: TRUE

Query string: Is it true that IC50 reported for C1CC1COc1nsnc1OC1CN2CCC1CC2 (racemic) is less than 30 nM?
Result string: FALSE

Query string: Is it true that IC50 reported for CCCCOc1nsnc1O[C@@H]1CN2CC[C@H]1C2 (relative stereo) is less than 30 nM?
Result string: TRUE

Query string: Is it true that IC50 reported for c1ccc(CCSc2nsnc2OC2CN3CCC2CC3)cc1 (racemic) is less than 30 nM?
Result string: FALSE

Query string: Is it true that IC50 reported for CC#CCOc1nsnc1OC1CN2CCC1CC2 (racemic) is less than 30 nM?
Result string: FALSE

Query string: Is it true that IC50 reported for COCCOc1nsnc1OC1CN2CCC1CC2 (racemic) is less than 30 nM?
Result string: FALSE

Query string: Is it true that IC50 reported for Fc1ccc(CCCSc2nsnc2OC2CN3CCC2CC3)cc1 (racemic) is less than 30 nM?
Result string: TRUE

Query string: Is it true that IC50 reported for CCCSc1nsnc1OC1CN2CCC1CC2 (racemic) is less than 30 nM?
Result string: TRUE

Query string: Is it true that IC50 reported for Clc1ccc(OCCOc2nsnc2OC2CN3CCC2CC3)cc1 (racemic) is less than 30 nM?
Result string: FALSE

Query string: Is it true that IC50 reported for c1ccc(CCCSc2nsnc2OC2CN3CCC2CC3)cc1 (racemic) is less than 30 nM?
Result string: TRUE

Query string: Is it true that IC50 reported for C/C=C/COc1nsnc1OC1CN2CCC1CC2 (mixture of isomers) is less than 30 nM?
Result string: FALSE

Query string: Is it true that IC50 reported for O=C1SCCN1CCCSc1nsnc1OC1CN2CCC1CC2 (racemic) is less than 30 nM?
Result string: TRUE

Query string: Is it true that IC50 reported for C(CC1CC1)Oc1nsnc1OC1CN2CCC1CC2 (racemic) is less than 30 nM?
Result string: FALSE

Query string: Is it true that IC50 reported for ClCCCOc1nsnc1OC1CN2CCC1CC2 (racemic) is less than 30 nM?
Result string: FALSE

Query string: Is it true that IC50 reported for O=C(CCSc1nsnc1OC1CN2CCC1CC2)c1ccc(F)cc1 (racemic) is less than 30 nM?
Result string: FALSE

Query string: Is it true that IC50 reported for Cl/C=C/COc1nsnc1OC1CN2CCC1CC2 (mixture of isomers) is less than 30 nM?
Result string: FALSE

Query string: Is it true that IC50 reported for CCCCCCc1nsnc1OC1CN2CCC1CC2 (racemic) is less than 30 nM?
Result string: FALSE

* * *

target: muscarinic acetylcholine receptors; test: inhibition of specific binding of ^3 H-Oxotremorine-M (^3 H-Oxo); settings: ^3 H-Oxotremorine 1.0 nM, rat cortex, 30 min. at 25° C.
ASSAY METRIC: pIC50
Please express pIC50 as -log10 of the molar concentration.

Query string: What is its pIC50 for muscarinic acetylcholine receptors? Entry: c1ccc(OCCOc2nsnc2OC2CN3CCC2CC3)cc1 (racemic)
Result string: 7.80

Query string: What is its pIC50 for muscarinic acetylcholine receptors? Entry: CCCSc1nsnc1OC1CN2CCC1CC2 (racemic)
Result string: 8.85

Query string: What is its pIC50 for muscarinic acetylcholine receptors? Entry: O=C(CCSc1nsnc1OC1CN2CCC1CC2)c1ccc(F)cc1 (racemic)
Result string: 7.77

Query string: What is its pIC50 for muscarinic acetylcholine receptors? Entry: CSc1ccc(COc2nsnc2O[C@@H]2CN3CCC[C@H]2C3)cc1 (relative stereo)
Result string: 8.28

Query string: What is its pIC50 for muscarinic acetylcholine receptors? Entry: C/C=C\COc1nsnc1O[C@@H]1CN2CCC[C@H]1C2 (relative stereo)
Result string: 8.96

Query string: What is its pIC50 for muscarinic acetylcholine receptors? Entry: CCCCCSc1nsnc1O[C@@H]1CN2CCC[C@H]1C2 (relative stereo)
Result string: 7.72

Query string: What is its pIC50 for muscarinic acetylcholine receptors? Entry: `CCCCCSc1nsnc1O[C@H]1CN2CCC1CC2`
Result string: 9.00

Query string: What is its pIC50 for muscarinic acetylcholine receptors? Entry: c1ccc(OCCOc2nsnc2O[C@@H]2CN3CCC[C@H]2C3)cc1 (relative stereo)
Result string: 8.85
